# target_or_test_system: purified recombinant human GAC (GLS1) (Homo sapiens, UniProt O94925)
# Sequence (O94925 55-598 isoform O94925-3 limits assumed): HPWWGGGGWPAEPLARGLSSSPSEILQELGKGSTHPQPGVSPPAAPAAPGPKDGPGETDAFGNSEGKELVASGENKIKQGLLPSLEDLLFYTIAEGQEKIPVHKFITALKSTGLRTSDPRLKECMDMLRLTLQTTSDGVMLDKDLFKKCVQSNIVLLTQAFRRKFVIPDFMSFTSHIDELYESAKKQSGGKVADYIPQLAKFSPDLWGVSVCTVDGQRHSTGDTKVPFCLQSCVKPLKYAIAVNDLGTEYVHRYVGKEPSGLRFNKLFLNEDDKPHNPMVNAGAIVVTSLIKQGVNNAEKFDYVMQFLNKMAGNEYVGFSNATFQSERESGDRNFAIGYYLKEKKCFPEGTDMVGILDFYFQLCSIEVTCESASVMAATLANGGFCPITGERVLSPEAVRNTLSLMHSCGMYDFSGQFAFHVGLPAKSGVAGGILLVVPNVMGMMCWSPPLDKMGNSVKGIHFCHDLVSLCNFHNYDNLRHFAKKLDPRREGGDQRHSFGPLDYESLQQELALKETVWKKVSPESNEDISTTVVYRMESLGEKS
# assay_summary: GLS1 Enzymatic Activity Assay (dual-coupled enzymatic assay)
measured_property: IC50

- O=C(NCc1ccccn1)c1cn(CCCCc2cc3c(-c4ccc(F)cc4F)c(C4CC4)[nH]c3nn2)nn1: < 100 nM
- Cn1ccc(CNC(=O)c2cn(CCCCc3cc4cc(C5CC5)[nH]c4nn3)nn2)n1: 100 to 500 nM
- O=C(NCc1ccccn1)c1cn(CCCCc2cc3cc(C4CC4)[nH]c3nn2)nn1: 100 to 500 nM
- COc1cccnc1-c1c(C2CC2)[nH]c2nnc(CCCCn3cc(C(=O)NCc4cccc(OC(F)(F)F)c4)nn3)cc12: < 100 nM
- Cc1ccc(CNC(=O)c2cn(CC(F)CCc3cc4cc(-c5ccccc5F)[nH]c4nn3)nn2)cn1 (stereo not drawn): < 100 nM
- Cc1ccc(CNC(=O)c2cn(CCCCc3cc4cc(C5CC5)[nH]c4nn3)nn2)nc1: 100 to 500 nM
- O=C(NCc1cccc(OC(F)(F)F)c1)c1cn(CCCCc2cc3cc(C4CNC4)[nH]c3nn2)nn1: 100 to 500 nM
- O=C(NCc1ccccn1)c1cn(CCCCc2cc3c(Cc4ccc(Cl)nc4)c(C4CC4)[nH]c3nn2)nn1 [Example 114, 2,2,2-trifluoroacetate]: < 100 nM
- O=C(NCc1cncc(C(F)(F)F)c1)c1cn(CCCCc2cc3c(-c4ccc(F)cc4F)c(C4CC4)[nH]c3nn2)nn1: < 100 nM
- CC(C)(O)c1cccc(CNC(=O)c2cn(CCCCc3cc4cc(C5CC5)[nH]c4nn3)nn2)n1: 100 to 500 nM

With purified recombinant human GAC (GLS1) (Homo sapiens, UniProt O94925) as the test system, COc1ccccc1-c1cc2cc(CCCCn3cc(C(=O)NCc4ccc(C)nc4)nn3)nnc2[nH]1 showed IC50 of < 100 nM

With purified recombinant human GAC (GLS1) (Homo sapiens, UniProt O94925) as the test system, O=C(NCc1ccccn1)c1cn(CCCCc2cc3c(Cc4ccccc4F)c(C4CC4)[nH]c3nn2)nn1 showed IC50 of < 100 nM

With purified recombinant human GAC (GLS1) (Homo sapiens, UniProt O94925) as the test system, O=C(NCc1ccccc1)c1cn(CCCCc2cc3c(I)c[nH]c3nn2)nn1 showed IC50 of 100 to 500 nM

With purified recombinant human GAC (GLS1) (Homo sapiens, UniProt O94925) as the test system, Cc1ccc(CNC(=O)c2cn(CCCCc3cc4c(-c5ccoc5)c(C5CC5)[nH]c4nn3)nn2)cn1 showed IC50 of < 100 nM

With purified recombinant human GAC (GLS1) (Homo sapiens, UniProt O94925) as the test system, NC(=O)c1nnc(CCCCc2cc3cc(Cc4ccccc4)[nH]c3nn2)s1 showed IC50 of 100 to 500 nM
